These entries and their values trace back to ChEMBL document CHEMBL3797052.

Test system: T47D
Assay: Antiproliferative activity against human T47D cells assessed as growth inhibition after 48 hrs by sulforhodamine B assay
Format: functional
Settings: read-out: LC50 (the source's name)
Quick list: CC50 per entry.
readout: CC50 (µM)

smiles_entry=CNC(=O)c1cc(Oc2ccc3nc(NC(=O)Nc4ccc(Cl)c(C(F)(F)F)c4)sc3c2)ccn1 target_of_assay=T47D readout=CC50 modifier=> data_value=100
smiles_entry=CNC(=O)c1cc(Oc2ccc(NC(=O)Nc3ccc(Cl)c(C(F)(F)F)c3)cc2)ccn1 target_of_assay=T47D readout=CC50 modifier== data_value=31.6
smiles_entry=CNC(=O)c1cc(Oc2ccc3nc(NC(=O)Nc4ccc(Cl)c(Cl)c4)sc3c2)ccn1 target_of_assay=T47D readout=CC50 modifier=> data_value=100
smiles_entry=CNC(=O)c1cc(Oc2ccc3nc(NC(=O)c4cc(C(F)(F)F)cc(C(F)(F)F)c4)sc3c2)ccn1 target_of_assay=T47D readout=CC50 modifier=> data_value=100
smiles_entry=CNC(=O)c1cc(Oc2ccc3nc(NC(=O)Nc4cc(C(F)(F)F)cc(C(F)(F)F)c4)sc3c2)ccn1 target_of_assay=T47D readout=CC50 modifier== data_value=8.47

---

Assay: Antiproliferative activity against human UO31 cells assessed as cell growth at 10^-8 M after 48 hrs by sulforhodamine B assay
Assay type: functional
Conditions: UO-31, 48 h, read-out: Activity
Quick list: growth at 0.01 µM per entry.
readout: growth at 0.01 µM (%)

smiles_entry=CNC(=O)c1cc(Oc2ccc3nc(NC(=O)Nc4ccc(Cl)c(Cl)c4)sc3c2)ccn1 readout="growth at 0.01 µM" u=% data_value=86
smiles_entry=CNC(=O)c1cc(Oc2ccc3nc(NC(=O)Nc4ccc(Cl)c(C(F)(F)F)c4)sc3c2)ccn1 readout="growth at 0.01 µM" u=% data_value=100
smiles_entry=CNC(=O)c1cc(Oc2ccc3nc(NC(=O)c4cc(C(F)(F)F)cc(C(F)(F)F)c4)sc3c2)ccn1 readout="growth at 0.01 µM" u=% data_value=85
smiles_entry=CNC(=O)c1cc(Oc2ccc3nc(NC(=O)Nc4cc(C(F)(F)F)cc(C(F)(F)F)c4)sc3c2)ccn1 readout="growth at 0.01 µM" u=% data_value=95

---

Test system: SK-MEL-2
Assay: Antiproliferative activity against human SK-MEL-2 cells assessed as growth inhibition after 48 hrs by sulforhodamine B assay
Assay type: functional
Conditions: SK-MEL-2, 48 h
Hi! Could you tag entries with TGI below 6 µM as 1, and those at or above as -1? Much appreciated.

smiles_entry=CNC(=O)c1cc(Oc2ccc(NC(=O)Nc3ccc(Cl)c(C(F)(F)F)c3)cc2)ccn1 class_name=1
smiles_entry=CNC(=O)c1cc(Oc2ccc3nc(NC(=O)Nc4cc(C(F)(F)F)cc(C(F)(F)F)c4)sc3c2)ccn1 class_name=1
smiles_entry=CNC(=O)c1cc(Oc2ccc3nc(NC(=O)c4cc(C(F)(F)F)cc(C(F)(F)F)c4)sc3c2)ccn1 class_name=-1
smiles_entry=CNC(=O)c1cc(Oc2ccc3nc(NC(=O)Nc4ccc(Cl)c(C(F)(F)F)c4)sc3c2)ccn1 class_name=-1

---

Assay: Antiproliferative activity against human NCI-ADR-RES cells assessed as cell growth at 10^-8 M after 48 hrs by sulforhodamine B assay
Format: functional
Conditions: read-out: Activity
Quick list: growth at 0.01 µM per entry.
readout: growth at 0.01 µM

smiles_entry=CNC(=O)c1cc(Oc2ccc3nc(NC(=O)Nc4cc(C(F)(F)F)cc(C(F)(F)F)c4)sc3c2)ccn1 data_value=101%
smiles_entry=CNC(=O)c1cc(Oc2ccc3nc(NC(=O)Nc4ccc(Cl)c(Cl)c4)sc3c2)ccn1 data_value=97%
smiles_entry=CNC(=O)c1cc(Oc2ccc3nc(NC(=O)c4cc(C(F)(F)F)cc(C(F)(F)F)c4)sc3c2)ccn1 data_value=102%
smiles_entry=CNC(=O)c1cc(Oc2ccc3nc(NC(=O)Nc4ccc(Cl)c(C(F)(F)F)c4)sc3c2)ccn1 data_value=110%

---

Target: CYP2C9 (Homo sapiens, UniProt P11712)
Sequence (P11712 whole entry): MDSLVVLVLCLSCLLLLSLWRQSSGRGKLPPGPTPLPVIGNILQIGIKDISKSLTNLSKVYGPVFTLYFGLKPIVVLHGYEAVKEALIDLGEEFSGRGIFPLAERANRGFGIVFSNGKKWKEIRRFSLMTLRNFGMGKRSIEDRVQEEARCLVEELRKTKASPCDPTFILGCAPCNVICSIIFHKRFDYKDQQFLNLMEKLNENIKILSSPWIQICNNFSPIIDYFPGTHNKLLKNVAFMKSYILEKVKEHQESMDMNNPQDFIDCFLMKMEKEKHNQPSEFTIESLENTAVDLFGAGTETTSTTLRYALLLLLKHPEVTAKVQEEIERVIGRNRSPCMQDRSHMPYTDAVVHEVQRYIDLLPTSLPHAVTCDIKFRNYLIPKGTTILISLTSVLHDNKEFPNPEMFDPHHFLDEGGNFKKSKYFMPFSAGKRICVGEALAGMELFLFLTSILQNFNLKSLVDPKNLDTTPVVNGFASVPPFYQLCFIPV
Experiment: Inhibition of recombinant human CYP2C9 assessed as remaining enzyme activity using CYP2C9 green as substrate at 10 uM after 5 mins in presence of NADP by fluorescence plate reader analysis
Format: ADME
Details: recombinant human CYP2C9, probe CYP2C9 green, read-out: Activity
readout: activity at 5 min, 10 µM (%)

smiles_entry=CNC(=O)c1cc(Oc2ccc3nc(NC(=O)c4cc(C(F)(F)F)cc(C(F)(F)F)c4)sc3c2)ccn1 readout="activity at 5 min, 10 µM" u=% data_value=32.7
smiles_entry=CNC(=O)c1cc(Oc2ccc3nc(NC(=O)Nc4cc(C(F)(F)F)cc(C(F)(F)F)c4)sc3c2)ccn1 readout="activity at 5 min, 10 µM" u=% data_value=88.2
smiles_entry=CNC(=O)c1cc(Oc2ccc3nc(NC(=O)Nc4ccc(Cl)c(Cl)c4)sc3c2)ccn1 readout="activity at 5 min, 10 µM" u=% data_value=90
smiles_entry=CNC(=O)c1cc(Oc2ccc3nc(NC(=O)Nc4ccc(Cl)c(C(F)(F)F)c4)sc3c2)ccn1 readout="activity at 5 min, 10 µM" u=% data_value=98.5

---

Test: Antiproliferative activity against human UACC257 cells assessed as growth inhibition after 48 hrs by sulforhodamine B assay
Assay type: functional
Details: UACC-257, 48 h
Hi! Could you tag entries with GI50 below 3 µM as 1, and those at or above as 0? Much appreciated.

molecule=CNC(=O)c1cc(Oc2ccc3nc(NC(=O)c4cc(C(F)(F)F)cc(C(F)(F)F)c4)sc3c2)ccn1 class_name=1
molecule=CNC(=O)c1cc(Oc2ccc3nc(NC(=O)Nc4ccc(Cl)c(Cl)c4)sc3c2)ccn1 class_name=1
molecule="CNC(=O)c1cc(Oc2ccc(NC(=O)Nc3ccc(Cl)c(C(F)(F)F)c3)cc2)ccn1 [SORAFENIB]" class_name=1
molecule=CNC(=O)c1cc(Oc2ccc3nc(NC(=O)Nc4ccc(Cl)c(C(F)(F)F)c4)sc3c2)ccn1 class_name=0
molecule=CNC(=O)c1cc(Oc2ccc3nc(NC(=O)Nc4cc(C(F)(F)F)cc(C(F)(F)F)c4)sc3c2)ccn1 class_name=1

---

Quick list: growth at 0.1 µM per entry.
Test system: 786-0
Experiment: Antiproliferative activity against human 786-0 cells assessed as cell growth at 10^-7 M after 48 hrs by sulforhodamine B assay
Type: functional
Details: 786-0, 48 h, read-out: Activity
readout: growth at 0.1 µM

smiles_entry=CNC(=O)c1cc(Oc2ccc3nc(NC(=O)Nc4cc(C(F)(F)F)cc(C(F)(F)F)c4)sc3c2)ccn1 target_of_assay=786-0 data_value=99%
smiles_entry=CNC(=O)c1cc(Oc2ccc3nc(NC(=O)Nc4ccc(Cl)c(C(F)(F)F)c4)sc3c2)ccn1 target_of_assay=786-0 data_value=101%
smiles_entry=CNC(=O)c1cc(Oc2ccc3nc(NC(=O)Nc4ccc(Cl)c(Cl)c4)sc3c2)ccn1 target_of_assay=786-0 data_value=100%
smiles_entry=CNC(=O)c1cc(Oc2ccc3nc(NC(=O)c4cc(C(F)(F)F)cc(C(F)(F)F)c4)sc3c2)ccn1 target_of_assay=786-0 data_value=90%

---

Quick list: TGI per entry.
Test system: T47D
Test: Antiproliferative activity against human T47D cells assessed as growth inhibition after 48 hrs by sulforhodamine B assay
Assay type: functional
readout: TGI (µM)

smiles_entry=CNC(=O)c1cc(Oc2ccc3nc(NC(=O)Nc4ccc(Cl)c(Cl)c4)sc3c2)ccn1 target_of_assay=T47D u=µM data_value=6.36
smiles_entry=CNC(=O)c1cc(Oc2ccc3nc(NC(=O)Nc4ccc(Cl)c(C(F)(F)F)c4)sc3c2)ccn1 target_of_assay=T47D u=µM data_value=3.65
smiles_entry=CNC(=O)c1cc(Oc2ccc3nc(NC(=O)c4cc(C(F)(F)F)cc(C(F)(F)F)c4)sc3c2)ccn1 target_of_assay=T47D u=µM data_value=9.18
smiles_entry=CNC(=O)c1cc(Oc2ccc(NC(=O)Nc3ccc(Cl)c(C(F)(F)F)c3)cc2)ccn1 target_of_assay=T47D u=µM data_value=7.94
smiles_entry=CNC(=O)c1cc(Oc2ccc3nc(NC(=O)Nc4cc(C(F)(F)F)cc(C(F)(F)F)c4)sc3c2)ccn1 target_of_assay=T47D u=µM data_value=2.3

---

Assay: Antiproliferative activity against human PC3 cells assessed as growth inhibition after 48 hrs by sulforhodamine B assay
Format: functional
Conditions: PC-3, 48 h
Quick list: TGI per entry.
readout: TGI (µM)

smiles_entry=CNC(=O)c1cc(Oc2ccc3nc(NC(=O)Nc4cc(C(F)(F)F)cc(C(F)(F)F)c4)sc3c2)ccn1 u=µM data_value=2.29
smiles_entry=CNC(=O)c1cc(Oc2ccc3nc(NC(=O)Nc4ccc(Cl)c(Cl)c4)sc3c2)ccn1 u=µM data_value=4.33
smiles_entry=CNC(=O)c1cc(Oc2ccc(NC(=O)Nc3ccc(Cl)c(C(F)(F)F)c3)cc2)ccn1 u=µM data_value=7.94
smiles_entry=CNC(=O)c1cc(Oc2ccc3nc(NC(=O)c4cc(C(F)(F)F)cc(C(F)(F)F)c4)sc3c2)ccn1 u=µM data_value=12.8
